- Tested on: Plasmodium falciparum
- experimental.details: MMV: Measure of pLDH activity as indication of parasite viability. Gametocytogenesis of 3D7 Plasmodium falciparum strain was induced in vitro and asexual parasites were depleted with N-acetylglucosamine. Gametocytes were treated with dihydroartemisinin, epoxomicin, methylene blue, primaquine, puromycin or chloroquine in 96-well plates and the pLDH activity was evaluated using a modified Makler protocol. Mosquito infectivity was measured by the standard membrane feeding assay.
- Format: functional
- Set-up: concentration or dose not given beside the values
Classify by measured Growth Inhibition: criterion met if it is equal to or exceeds 10%, criterion not met if it is smaller.

Known results for compounds:
input: State whether the measured Growth Inhibition reaches 10%, counting equality as reaching it, for O=C(NCc1ccco1)C1CCN(S(=O)(=O)c2ccc(Br)cc2)CC1
output: criterion not met

input: Try this compound next: COc1ccc2nc(N)nc(C)c2c1
output: criterion not met

input: Try this compound next: COc1ccc(C(=O)C(CCC(CNC(C)(C)C)C(=O)c2ccc(OC)cc2)CNC(C)(C)C)cc1 (stereo not given)
output: criterion met

input: Try this compound next: CCCCCCn1c(=N)n(CC(O)COc2cccc(C)c2)c2ccccc21.Cl (stereo not given)
output: criterion met

input: Try this compound next: CC(C)(C)c1ccc(C2CC3=Nc4ccccc4N(C(=O)c4ccccc4Cl)C(c4ccc(F)cc4)C3=C(O)C2)cc1 (stereo not given)
output: criterion met

Further cases:
input: State whether the measured Growth Inhibition reaches 10%, counting equality as reaching it, for O=c1nc(C=Cc2ccc(Cl)cc2)oc2ccccc12
output: criterion met

input: Try this compound next: C=CCc1c(C)nc2ccccc2c1O
output: criterion not met

input: Try this compound next: N=c1n(CCN2CCCCC2)c2ccccc2n1CC(=O)c1ccc(Cl)c(Cl)c1
output: criterion met

input: Try this compound next: COc1cccc(C(=O)NC(c2ccc(C)cc2)c2cc(Cl)c3cccnc3c2O)c1 (stereo not given)
output: criterion met

input: Try this compound next: CCCn1c(=N)c(C(=O)NC2CCCCC2)cc2c(=O)n3cccc(C)c3nc21
output: criterion not met
